Origin of the recorded values: patent US11807625B2

assayProtocol: PK of compound of Formula (Ia) after single subcutaneous dose of solution formulations in Wistar Han rats
Assay type: in vivo
conditionDescription: male, Wistar Han, rat, plasma, sc, 50 mg/kg, Wistar Han rats, SC 50 mg/kg, 400 mg/mL solution AA (6.25% poloxamer 188), 3.00 h, animals #1-#4
Protocol: Formulations containing the compound of Formula (Ia), or a pharmaceutically acceptable salt thereof, were prepared as solutions and optionally administered subcutaneously or intramuscularly to rats, rabbits, and/or dogs. A solution of about 400 mg/mL of the compound of Formula (Ia) having 19.14 w/w % water, 40.66 w/w % PEG 300, 35.20 w/w % of a sodium salt of a compound of Formula (Ia), and 5.00% ethanol was prepared. […]
endpoint: concentration at 3 h (µM)

{"compound": "CC(C)(C#Cc1ccc(-c2ccc(Cl)c3c(NS(C)(=O)=O)nn(CC(F)(F)F)c23)c([C@H](Cc2cc(F)cc(F)c2)NC(=O)Cn2nc(C(F)(F)F)c3c2C(F)(F)[C@@H]2C[C@H]32)n1)S(C)(=O)=O [compound of Formula (Ia)]", "recordedResult": 0.0679}

* * *

assayProtocol: PK of compound of Formula (Ia) after single intramuscular dose of solution formulations in Wistar Han rats
Type: in vivo
conditionDescription: male, Wistar Han, rat, plasma, intramuscular, 100 mg/kg, 96.0 h; mean, n = 4 rats; IM 100 mg/kg; solution M, 500 mg/mL; read-out: Plasma concentration
endpoint: concentration at 96 h (nM)

{"entrySmiles": "CC(C)(C#Cc1ccc(-c2ccc(Cl)c3c(NS(C)(=O)=O)nn(CC(F)(F)F)c23)c([C@H](Cc2cc(F)cc(F)c2)NC(=O)Cn2nc(C(F)(F)F)c3c2C(F)(F)[C@@H]2C[C@H]32)n1)S(C)(=O)=O", "unitsLabel": "nM", "recordedResult": 526}

* * *

assayProtocol: PK of compound of Formula (Ia) after single subcutaneous dose of solution formulations in beagle dogs
Format: in vivo
conditionDescription: male, beagle, dog, plasma, sc, 12 mg/kg, mean ± SD, n = 3 dogs; SC 12 mg/kg; solution W, 400 mg/mL; read-out: AUC0-4032 h
endpoint: AUC(0-t) (µM·h)

{"entrySmiles": "CC(C)(C#Cc1ccc(-c2ccc(Cl)c3c(NS(C)(=O)=O)nn(CC(F)(F)F)c23)c([C@H](Cc2cc(F)cc(F)c2)NC(=O)Cn2nc(C(F)(F)F)c3c2C(F)(F)[C@@H]2C[C@H]32)n1)S(C)(=O)=O", "recordedResult": 181}

* * *

assayProtocol: PK of compound of Formula (Ia) after single subcutaneous dose of solution formulations in beagle dogs
Type: in vivo
conditionDescription: male, beagle, dog, plasma, sc, 12 mg/kg, beagle dogs, SC 12 mg/kg, 400 mg/mL solution W (5.00% ethanol, 1.57% poloxamer 188), 3.00 h, Mean n = 3
endpoint: concentration at 3 h (nM)

{"entrySmiles": "CC(C)(C#Cc1ccc(-c2ccc(Cl)c3c(NS(C)(=O)=O)nn(CC(F)(F)F)c23)c([C@H](Cc2cc(F)cc(F)c2)NC(=O)Cn2nc(C(F)(F)F)c3c2C(F)(F)[C@@H]2C[C@H]32)n1)S(C)(=O)=O", "recordedResult": 3.84}

* * *

assayProtocol: PK of compound of Formula (Ia) after single subcutaneous dose of solution formulations in Wistar Han rats
Type: in vivo
conditionDescription: male, Wistar Han, rat, plasma, sc, 50 mg/kg, male Wistar Han rats, single SC 50 mg/kg, 400 mg/mL solution Y (water, PEG 300), mean ± SD, n = 4; read-out: AUC0-672 h
Procedure: Formulations containing the compound of Formula (Ia), or a pharmaceutically acceptable salt thereof, were prepared as solutions and optionally administered subcutaneously or intramuscularly to rats, rabbits, and/or dogs. A solution of about 400 mg/mL of the compound of Formula (Ia) having 19.14 w/w % water, 40.66 w/w % PEG 300, 35.20 w/w % of a sodium salt of a compound of Formula (Ia), and 5.00% ethanol was prepared. […]
endpoint: AUC(0-t) (µM·h)

{"compound": "CC(C)(C#Cc1ccc(-c2ccc(Cl)c3c(NS(C)(=O)=O)nn(CC(F)(F)F)c23)c([C@H](Cc2cc(F)cc(F)c2)NC(=O)Cn2nc(C(F)(F)F)c3c2C(F)(F)[C@@H]2C[C@H]32)n1)S(C)(=O)=O [compound of Formula (Ia)]", "recordedResult": 74.9}

* * *

assayProtocol: PK of compound of Formula (Ia) after single subcutaneous dose of solution formulations in beagle dogs
Type: in vivo
conditionDescription: male, beagle, dog, plasma, sc, 12 mg/kg, mean ± SD, n = 3 dogs; SC 12 mg/kg; solution W, 400 mg/mL; read-out: AUC0-2688 h

{"compound": "CC(C)(C#Cc1ccc(-c2ccc(Cl)c3c(NS(C)(=O)=O)nn(CC(F)(F)F)c23)c([C@H](Cc2cc(F)cc(F)c2)NC(=O)Cn2nc(C(F)(F)F)c3c2C(F)(F)[C@@H]2C[C@H]32)n1)S(C)(=O)=O [compound of Formula (Ia)]", "unitsLabel": "µM·h", "AUC(0-t)": 170}

* * *

assayProtocol: PK of compound of Formula (Ia) after single subcutaneous dose of solution formulations in Wistar Han rats
Type: in vivo
conditionDescription: male, Wistar Han, rat, plasma, sc, 50 mg/kg, 48.0 h; mean, n = 5 rats; SC 50 mg/kg; solution U, 500 mg/mL

{"compound": "CC(C)(C#Cc1ccc(-c2ccc(Cl)c3c(NS(C)(=O)=O)nn(CC(F)(F)F)c23)c([C@H](Cc2cc(F)cc(F)c2)NC(=O)Cn2nc(C(F)(F)F)c3c2C(F)(F)[C@@H]2C[C@H]32)n1)S(C)(=O)=O [compound of Formula (Ia)]", "concentration at 48 h, nM": 211}

* * *

assayProtocol: PK of compound of Formula (Ia) after single subcutaneous dose of solution formulations in beagle dogs
Format: in vivo
conditionDescription: male, beagle, dog, plasma, sc, 12 mg/kg, 3.00 h; mean, n = 3 dogs; SC 12 mg/kg; solution T, 400 mg/mL

{"compound": "CC(C)(C#Cc1ccc(-c2ccc(Cl)c3c(NS(C)(=O)=O)nn(CC(F)(F)F)c23)c([C@H](Cc2cc(F)cc(F)c2)NC(=O)Cn2nc(C(F)(F)F)c3c2C(F)(F)[C@@H]2C[C@H]32)n1)S(C)(=O)=O [compound of Formula (Ia)]", "unitsLabel": "nM", "concentration at 3 h": 18.1}

* * *

assayProtocol: PK of compound of Formula (Ia) after single subcutaneous dose of solution formulations in beagle dogs
Type: in vivo
conditionDescription: male, beagle, dog, plasma, sc, 12 mg/kg, male beagle dogs, single SC 12 mg/kg, 500 mg/mL solution X (5.00% ethanol, 1.91% poloxamer 188), mean ± SD, n = 3
endpoint: Cmax (µM)

{"entrySmiles": "CC(C)(C#Cc1ccc(-c2ccc(Cl)c3c(NS(C)(=O)=O)nn(CC(F)(F)F)c23)c([C@H](Cc2cc(F)cc(F)c2)NC(=O)Cn2nc(C(F)(F)F)c3c2C(F)(F)[C@@H]2C[C@H]32)n1)S(C)(=O)=O", "recordedResult": 0.125}

* * *

assayProtocol: PK of compound of Formula (Ia) after single subcutaneous dose of solution formulations in beagle dogs
Format: in vivo
conditionDescription: male, beagle, dog, plasma, sc, 12 mg/kg, beagle dogs, SC 12 mg/kg, 400 mg/mL solution AA (6.25% poloxamer 188), 1008 h, animals #1-#3
Procedure: Formulations containing the compound of Formula (Ia), or a pharmaceutically acceptable salt thereof, were prepared as solutions and optionally administered subcutaneously or intramuscularly to rats, rabbits, and/or dogs. A solution of about 400 mg/mL of the compound of Formula (Ia) having 17.00 w/w % water, 36.40 w/w % PEG 300, 35.20 w/w % of a sodium salt of a compound of Formula (Ia), 5.00 w/w % ethanol, and 6.40 w/w % poloxamer 188 was prepared. […]
endpoint: concentration at 1008 h (nM)

{"molecule": "CC(C)(C#Cc1ccc(-c2ccc(Cl)c3c(NS(C)(=O)=O)nn(CC(F)(F)F)c23)c([C@H](Cc2cc(F)cc(F)c2)NC(=O)Cn2nc(C(F)(F)F)c3c2C(F)(F)[C@@H]2C[C@H]32)n1)S(C)(=O)=O [compound of Formula (Ia)]", "unitsLabel": "nM", "recordedResult": 77.6}

* * *

assayProtocol: PK of compound of Formula (Ia) after single subcutaneous dose of solution formulations in Wistar Han rats
Type: in vivo
conditionDescription: male, Wistar Han, rat, plasma, sc, 50 mg/kg, 8.00 h; individual rats; SC 50 mg/kg; solution S, 500 mg/mL

{"compound": "CC(C)(C#Cc1ccc(-c2ccc(Cl)c3c(NS(C)(=O)=O)nn(CC(F)(F)F)c23)c([C@H](Cc2cc(F)cc(F)c2)NC(=O)Cn2nc(C(F)(F)F)c3c2C(F)(F)[C@@H]2C[C@H]32)n1)S(C)(=O)=O [compound of Formula (Ia)]", "unitsLabel": "nM", "concentration at 8 h": 92}
